FYI, the data here is from ChEMBL document CHEMBL3885881.

Species: Rattus norvegicus
Assay: DrugMatrix - Regimen: Daily Repeat
Format: toxicity, organism-based, Sprague-Dawley
Design: regimen Daily Repeat, gender Male, age 6-8 weeks
Conditions: in vivo, po, 0 mg/kg, 120 h, tissue Blood, route oral GAVAGE, dose level Control, time 5 day, vehicle .5 % CMC
Property Label: ABSOLUTE EOSINOPHIL (CELLS/uL)
Please give a number only; it is taken to be in CELLS/uL.

Given C[C@]12CC[C@@H]3c4ccc(O)cc4CC[C@H]3[C@@H]1C[C@@H](O)[C@@H]2O , state its recorded ABSOLUTE EOSINOPHIL.
69

Given NC(=O)N1c2ccccc2CC(=O)c2ccccc21 [OXCARBAZEPINE] , state its recorded ABSOLUTE EOSINOPHIL.
23.33

Given C[C@@](Cc1ccc(O)c(O)c1)(NN)C(=O)O.O , state its recorded ABSOLUTE EOSINOPHIL.
148.67
